Values from patent US20040063662A1

Tested on: NCI-H522
Experiment: NCI human tumor cell panel: NCI-H522 (Non-Small Cell Lung Cancer)
Conditions: NCI-H522, read-out: Log10 TGI

{"columns": ["compound", "sign", "IC (TGI) (µM)"],
 "data": [
  ["O=Cc1ccc(-c2ccc(-c3cccs3)[se]2)s1 [NSC 675346]", ">", 100],
  ["OCc1ccc(-c2ccc(-c3ccc(CO)[se]3)s2)[se]1 [compound 676632]", ">", 100],
  ["OCc1ccc(-c2ccc(-c3ccc(CO)[se]3)s2)s1 [compound 688830]", ">", 100],
  ["O=Cc1ccc(-c2ccc(-c3ccc(C=O)s3)[se]2)s1 [NSC 675345]", ">", 100],
  ["OCc1ccc(-c2ccc(-c3ccc[se]3)s2)[se]1 [compound 676631]", "=", 21.4],
  ["OCc1ccc(-c2ccc(-c3ccc[se]3)[se]2)[se]1 [compound 675246]", "=", 6.61],
  ["O=Cc1ccc(-c2ccc(-c3ccc(C=O)[se]3)s2)s1 [compound 688829]", "=", 39.8],
  ["O=Cc1ccc(-c2ccc(-c3ccc(C=O)[se]3)[se]2)[se]1 [NSC 675245]", "=", 45.7]
]}

====

Test system: OVCAR-5
Assay: NCI human tumor cell panel: OVCAR-5 (Ovarian Cancer)
Format: cell-based
Conditions: OVCAR-5, read-out: Log10 TGI (converted)
Criterion: IC (TGI) strictly under 200 nM. Met: yes (1). Not met: no (0).

{"columns": ["molecule", "label_value"],
 "data": [
  ["OCc1ccc(-c2ccc(-c3ccc[se]3)[se]2)[se]1 [compound 675246]", "no (0)"],
  ["O=Cc1ccc(-c2ccc(-c3ccc(C=O)[se]3)s2)s1 [compound 688829]", "no (0)"],
  ["OCc1ccc(-c2ccc(-c3ccc(CO)[se]3)[se]2)[se]1 [compound 675247]", "no (0)"],
  ["OCc1ccc(-c2ccc(-c3ccc(CO)s3)[se]2)s1 [compound 675343]", "no (0)"],
  ["OCc1ccc(-c2ccc(-c3ccc[se]3)s2)[se]1 [compound 676631]", "no (0)"],
  ["OCc1ccc(-c2ccc(-c3ccc(CO)[se]3)s2)[se]1 [compound 676632]", "yes (1)"]
]}

====

Listed next: entries and their corresponding IC (TGI).
System: SF-539
Assay: NCI human tumor cell panel: SF-539 (CNS Cancer)
Format: cell-based
Conditions: SF-539, CNS Cancer, read-out: Log10 TGI (converted)

{"columns": ["smiles_notation", "IC (TGI)"],
 "data": [
  ["OCc1ccc(-c2ccc(-c3cccs3)[se]2)s1", "> 100 µM"],
  ["O=Cc1ccc(-c2ccc(-c3cccs3)[se]2)s1", "> 100 µM"],
  ["O=Cc1ccc(-c2ccc(-c3ccc[se]3)[se]2)[se]1", "33.1 µM"],
  ["O=Cc1ccc(-c2ccc(-c3ccc(C=O)s3)[se]2)s1", "> 100 µM"],
  ["O=Cc1ccc(-c2ccc(-c3ccc(C=O)[se]3)[se]2)[se]1", "> 100 µM"],
  ["O=Cc1ccc(-c2ccc(-c3ccc(C=O)[se]3)s2)[se]1", "> 100 µM"]
]}
